molecular target: recombinant eIF4E (Homo sapiens (Human)); test: Fluorescence polarization competition assay for eIF4E binding potency; conditions: fluorescence polarization competition, 75 nM recombinant eIF4E, 20 nM EDA-m7GDP-ATTO-550; IC50 class; read-out: elF4E FP
Sequence (P06730 whole entry): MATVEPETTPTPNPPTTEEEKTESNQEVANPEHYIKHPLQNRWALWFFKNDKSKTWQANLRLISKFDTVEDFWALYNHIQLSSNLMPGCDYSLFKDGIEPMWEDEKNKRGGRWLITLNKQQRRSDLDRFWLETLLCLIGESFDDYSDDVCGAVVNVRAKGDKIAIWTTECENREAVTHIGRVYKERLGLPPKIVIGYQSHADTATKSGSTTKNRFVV
READOUT_KIND: IC50

N#Cc1cccc2nc(C(F)F)n(CCOc3ccc(Cl)cc3-c3nccc4c(C(=O)O)csc34)c(=O)c12 | > 1000 nM
COc1ccc(-c2c(Cl)cc3nc(C)n(CCOc4ccc(Cl)cc4-c4cc(C)nc5c(C(=O)O)csc45)c(=O)c3c2C#N)cn1 | < 50 nM
Cc1cc(-c2cc(Cl)ccc2OCCn2c(C)nc3cc(C(F)(F)F)c(C(=O)N(C)C)nc3c2=O)c2scc(C(=O)O)c2n1 | < 50 nM

[in] Please look up its IC50: `Cc1nc2cc(C(F)(F)F)c(CN3[C@@H]4CC[C@H]3COC4)c(C#N)c2c(=O)n1CCOc1ccc(Cl)cc1-c1ccnc2c(C(=O)O)csc12`
[out] < 50 nM

[in] Lookup `Cc1cc(-c2cc(Cl)ccc2OCCn2c(C)nc3c(F)cc(C(F)F)c(C#N)c3c2=O)c2scc(C(=O)NC(=O)N(C)C)c2n1`
[out] > 1000 nM

[in] Lookup `Cc1cc(-c2cc(Cl)ccc2OCCn2c(C)nc3cc(C(F)(F)F)c(-c4cncc(C(F)(F)F)n4)c(C#N)c3c2=O)c2scc(C(=O)O)c2n1`
[out] < 50 nM
